Each recorded value in this set is attributed to patent US9358096B2.

- assay-info: everolimus arterial tissue concentration in and next to the stented vessel
- Assay type: in vivo, swine
- stated-conditions: swine, arterial tissue distal to stented region (unstented), 1070 μg, swine; 10.0×28 mm stent, 1070 μg; 7 days; read-out: drug concentration in tissue distal to stented region
measured-attribute: concentration at 7 days (ng/g)
Value expressed in ng/g; do not type the unit.

Note concentration at 7 days for the compound shown: CO[C@H]1C[C@@H]2CC[C@@H](C)[C@@](O)(O2)C(=O)C(=O)N2CCCC[C@H]2C(=O)O[C@H]([C@H](C)C[C@@H]2CC[C@@H](OCCO)[C@H](OC)C2)CC(=O)[C@H](C)/C=C(\C)[C@@H](O)[C@@H](OC)C(=O)[C@H](C)C[C@H](C)/C=C/C=C/C=C/1C [everolimus, 40-O-(2-hydroxyethyl)-rapamycin]
208

----------
- assay-info: everolimus arterial tissue concentration in and next to the stented vessel
- Format: in vivo, swine
- stated-conditions: swine, 1070 μg, swine; 8.0×28 mm stent, group 2, 1070 μg Lot #2; 28 days; read-out: drug concentration in tissue proximal to stented region
measured-attribute: concentration at 28 days (ng/g)
Supply the numeric figure in ng/g, leaving out any unit text.

// fetch concentration at 28 days given entry CO[C@H]1C[C@@H]2CC[C@@H](C)[C@@](O)(O2)C(=O)C(=O)N2CCCC[C@H]2C(=O)O[C@H]([C@H](C)C[C@@H]2CC[C@@H](OCCO)[C@H](OC)C2)CC(=O)[C@H](C)/C=C(\C)[C@@H](O)[C@@H](OC)C(=O)[C@H](C)C[C@H](C)/C=C/C=C/C=C/1C [everolimus, 40-O-(2-hydroxyethyl)-rapamycin]
50

----------
- assay-info: everolimus arterial tissue concentration in and next to the stented vessel
- Format: in vivo, swine
- stated-conditions: swine, arterial tissue, medial stented region (C), swine; 7.0×100 mm stent; 90 days; read-out: Mean Arterial Tissue Concentration, C medial stented region
measured-attribute: concentration at 90 days (ng/g)
# output: bare number, implied unit ng/g

Identify measured concentration at 90 days associated with CO[C@H]1C[C@@H]2CC[C@@H](C)[C@@](O)(O2)C(=O)C(=O)N2CCCC[C@H]2C(=O)O[C@H]([C@H](C)C[C@@H]2CC[C@@H](OCCO)[C@H](OC)C2)CC(=O)[C@H](C)/C=C(\C)[C@@H](O)[C@@H](OC)C(=O)[C@H](C)C[C@H](C)/C=C/C=C/C=C/1C [everolimus, 40-O-(2-hydroxyethyl)-rapamycin]
2700

----------
- assay-info: everolimus arterial tissue concentration in and next to the stented vessel
- Type: in vivo, swine
- stated-conditions: swine, arterial tissue, stented region, 3209 μg, swine; 8.0×28 mm stent, group 3, 3209 μg; 3 days; read-out: drug concentration in tissue of stented region
measured-attribute: concentration at 3 days

Give the reported concentration at 3 days for this molecule. CO[C@H]1C[C@@H]2CC[C@@H](C)[C@@](O)(O2)C(=O)C(=O)N2CCCC[C@H]2C(=O)O[C@H]([C@H](C)C[C@@H]2CC[C@@H](OCCO)[C@H](OC)C2)CC(=O)[C@H](C)/C=C(\C)[C@@H](O)[C@@H](OC)C(=O)[C@H](C)C[C@H](C)/C=C/C=C/C=C/1C [everolimus, 40-O-(2-hydroxyethyl)-rapamycin]
22000 ng/g
